Test system: rice
Protocol: Test B flood test rice
Format: in vivo, Oryza sativa
Condition context: Postemergence (flood test species), Rate 125 g/ha; scale of 0 to 10 where 0 is no effect and 10 is complete control
# Lookup of reported Rice plant response rating keyed by entry

{"Structure string": "Cc1ccccc1Cn1c(=O)on(C(=O)N(c2ccc(Cl)cc2)C(C)C)c1=O", "Rice plant response rating": 0}
{"Structure string": "CCOC(=O)Cn1c(=O)on(C(=O)N(c2ccc(F)cc2)C(C)C)c1=O", "Rice plant response rating": 0}
{"Structure string": "CC(C)N(C(=O)n1oc(=O)n(-c2cnn(C)c2Cl)c1=O)c1ccccc1", "Rice plant response rating": 0}
{"Structure string": "CC(C)N(C(=O)n1oc(=O)n(CCCl)c1=O)c1ccc(F)cc1", "Rice plant response rating": 0}

====

System: corn
Protocol: Test B pre/postemergence corn
Assay type: in vivo, Zea mays
Condition context: Postemergence, Rate 250 g/ha; scale of 0 to 10, 0 is no effect, 10 is complete control
# Lookup of reported Corn plant response rating keyed by entry

{"Structure string": "CC(C)N(C(=O)n1oc(=O)n(CC(=O)C2CCC2)c1=O)c1ccc(Cl)cc1", "Corn plant response rating": 0}
{"Structure string": "CC[C@@H](C)n1c(=O)on(C(=O)N(c2ccc(F)cc2F)C(C)C)c1=O", "Corn plant response rating": 4}
{"Structure string": "CC(C)N(C(=O)n1oc(=O)n(CCCC#N)c1=O)c1ccccc1", "Corn plant response rating": 6}
{"Structure string": "CC(=O)NCn1c(=O)on(C(=O)N(c2ccc(F)cc2F)C(C)C)c1=O", "Corn plant response rating": 0}

====

Test system: crabgrass
Protocol: Test B pre/postemergence crabgrass
Assay type: in vivo, Digitaria sanguinalis
Condition context: Preemergence, Rate 125 g/ha; 0 is no effect, 10 is complete control
Just a reminder that ties go to Condition not met: only Crabgrass plant response rating (0 to 10 scale) strictly below 4 counts as Condition met.

{"Compound": "CC(C)N(C(=O)n1oc(=O)n(C(C)c2ccccc2)c1=O)c1ccc(F)cc1 (stereo not shown)", "Subject of test": "crabgrass", "Qualitative label": "Condition not met"}
{"Compound": "CCOC(=O)Cn1c(=O)on(C(=O)N(c2ccc(F)cc2)C(C)C)c1=O", "Subject of test": "crabgrass", "Qualitative label": "Condition met"}
{"Compound": "CC(C)N(C(=O)n1oc(=O)n(-c2nc(Cl)sc2Cl)c1=O)c1ccc(F)cc1", "Subject of test": "crabgrass", "Qualitative label": "Condition met"}
{"Compound": "Cc1ccccc1-n1c(=O)on(C(=O)N(c2ccccc2F)C(C)C)c1=O", "Subject of test": "crabgrass", "Qualitative label": "Condition not met"}
{"Compound": "CC(C)N(C(=O)n1oc(=O)n([C@H](C)c2ccccc2)c1=O)c1ccc(Cl)cc1", "Subject of test": "crabgrass", "Qualitative label": "Condition met"}
{"Compound": "Cc1ccccc1-n1c(=O)on(C(=O)N(c2ccc(-c3ccccc3)cc2)C(C)C)c1=O", "Subject of test": "crabgrass", "Qualitative label": "Condition met"}

====

# Lookup of reported Plant response rating, Wheat keyed by entry
Test system: wheat
Protocol: Test B pre/postemergence wheat
Type: in vivo, Triticum aestivum
Condition context: Preemergence, Rate 125 g/ha; scale of 0 to 10 where 0 is no effect and 10 is complete control
Outcome measure: Plant response rating, Wheat

{"Compound": "CC(C)N(C(=O)n1oc(=O)n(C(C)C(=O)N2CCOCC2)c1=O)c1ccc(Cl)cc1 (stereo not drawn) [Compound 703]", "Outcome measure": "Plant response rating, Wheat", "Reported result": 0}
{"Compound": "COC(CCl)n1c(=O)on(C(=O)N(c2ccccc2)C(C)C)c1=O (stereo not drawn) [Compound 735]", "Outcome measure": "Plant response rating, Wheat", "Reported result": 0}
{"Compound": "CC(C)N(C(=O)n1oc(=O)n(C(C)C2=NOCC2)c1=O)c1ccc(F)cc1F (racemic) [Compound 730]", "Outcome measure": "Plant response rating, Wheat", "Reported result": 0}

====

# Lookup of reported Cocklebur plant response rating keyed by entry
Test system: cocklebur
Protocol: Test B pre/postemergence cocklebur
Type: in vivo, Xanthium strumarium
Condition context: Preemergence, Rate 500 g/ha; scale of 0 to 10 where 0 is no effect and 10 is complete control
Outcome measure: Cocklebur plant response rating

{"Structure string": "CC(C)N(C(=O)n1oc(=O)[nH]c1=O)c1ccc(F)cc1F", "Reported result": 0}
{"Structure string": "CC(C)N(C(=O)n1oc(=O)n(-c2ccc3ccccc3c2)c1=O)c1ccccc1", "Reported result": 0}
{"Structure string": "CC(C)N(C(=O)n1oc(=O)n(C2(C)CC2)c1=O)c1ccccc1", "Reported result": 0}
{"Structure string": "CC(=O)OCCCCn1c(=O)on(C(=O)N(c2ccccc2)C(C)C)c1=O", "Reported result": 0}

====

Tested on: corn
Protocol: Test B pre/postemergence corn
Type: in vivo, Zea mays
Condition context: Postemergence, Rate 500 g/ha; scale of 0 to 10 where 0 is no effect and 10 is complete control
# Lookup of reported Corn plant response rating keyed by entry

{"Compound": "CC(C)N(C(=O)n1oc(=O)n(C(C)CCl)c1=O)c1ccccc1 (stereo not shown) [Compound 411]", "Corn plant response rating": 4}
{"Compound": "CC(C)N(C(=O)n1oc(=O)n(C(C)CCl)c1=O)c1ccc(Cl)cc1 (stereo not shown) [Compound 456]", "Corn plant response rating": 0}
{"Compound": "CC(C)N(C(=O)n1oc(=O)n(CC#N)c1=O)c1ccc(F)cc1F [Compound 431]", "Corn plant response rating": 0}
{"Compound": "CC(C)N(C(=O)n1oc(=O)n(CC2=NOCCC2)c1=O)c1ccccc1 [Compound 430]", "Corn plant response rating": 4}
{"Compound": "CC(C)N(C(=O)n1oc(=O)n(C(C)Cl)c1=O)c1ccc(F)cc1 (stereo not shown) [Compound 393]", "Corn plant response rating": 0}
{"Compound": "CC(C)Cn1c(=O)on(C(=O)N(c2ccc(F)cc2F)C(C)C)c1=O [Compound 394]", "Corn plant response rating": 0}
{"Compound": "CC(C)N(C(=O)n1oc(=O)n(C(C)C#N)c1=O)c1ccc(Cl)cc1 (stereo not shown) [Compound 451]", "Corn plant response rating": 0}

====

# Lookup of reported B. signalgrass plant response rating keyed by entry
Tested on: surinam grass
Protocol: Test B pre/postemergence surinam grass
Assay type: in vivo, Brachiaria decumbens
Condition context: Postemergence, Rate 250 g/ha; scale 0 to 10, 0 no effect, 10 complete control

{"Compound": "CC(C)N(C(=O)n1oc(=O)n(C(C)C#N)c1=O)c1ccc(Cl)cc1 (centres unmarked)", "B. signalgrass plant response rating": 0}
{"Compound": "CC(C)N(C(=O)n1oc(=O)n(CCC#N)c1=O)c1ccc(F)cc1F", "B. signalgrass plant response rating": 3}
{"Compound": "Cc1ccccc1-n1c(=O)on(C(=O)N(c2cc(F)ccc2F)C(C)C)c1=O", "B. signalgrass plant response rating": 0}
{"Compound": "COc1ccc(N(C(=O)n2oc(=O)n(-c3ccccc3C)c2=O)C(C)C)cc1", "B. signalgrass plant response rating": 0}
{"Compound": "CC(C)N(C(=O)n1oc(=O)n(CC#N)c1=O)c1ccc(F)cc1F", "B. signalgrass plant response rating": 0}

====

System: crabgrass
Protocol: Test B pre/postemergence crabgrass
Type: in vivo, Digitaria sanguinalis
Condition context: Preemergence, Rate 62 g/ha; scale 0 to 10 (0 no effect, 10 complete control)
Rule: Crabgrass plant response rating under 5 gives FALSE, otherwise TRUE.

{"Structure string": "C=C(C)Cn1c(=O)on(C(=O)N(c2ccc(F)cc2)C(C)C)c1=O", "Qualitative label": "TRUE"}
{"Structure string": "CCOC(=O)Cn1c(=O)on(C(=O)N(c2ccc(F)cc2)C(C)C)c1=O", "Qualitative label": "FALSE"}
{"Structure string": "CC(C)N(C(=O)n1oc(=O)n(-c2cnn(C)c2)c1=O)c1ccc(F)cc1", "Qualitative label": "FALSE"}
{"Structure string": "CC(C)=CCn1c(=O)on(C(=O)N(c2ccccc2)C(C)C)c1=O", "Qualitative label": "FALSE"}
{"Structure string": "CC(Cl)=CCn1c(=O)on(C(=O)N(c2ccc(Cl)cc2)C(C)C)c1=O", "Qualitative label": "TRUE"}
{"Structure string": "Cc1nn(C)c(Cl)c1-n1c(=O)on(C(=O)N(c2ccc(F)cc2)C(C)C)c1=O", "Qualitative label": "FALSE"}
{"Structure string": "CC(=O)N(C)CCn1c(=O)on(C(=O)N(c2ccc(F)cc2)C(C)C)c1=O", "Qualitative label": "FALSE"}

====

# Lookup of reported Nutsedge plant response rating keyed by entry
Test system: purple nutsedge
Protocol: Test B pre/postemergence purple nutsedge
Assay type: in vivo, Cyperus rotundus
Condition context: Postemergence, Rate 250 g/ha; scale 0 to 10
Outcome measure: Nutsedge plant response rating

{"Compound": "CC(C)N(C(=O)n1oc(=O)n(Cc2cnc(Cl)s2)c1=O)c1ccc(F)cc1", "Outcome measure": "Nutsedge plant response rating", "Reported result": 0}
{"Compound": "CC(C)N(C(=O)n1oc(=O)n(C(C)CCl)c1=O)c1ccc(Cl)cc1 (centres unmarked)", "Outcome measure": "Nutsedge plant response rating", "Reported result": 0}
{"Compound": "CC(C)N(C(=O)n1oc(=O)n(CC#N)c1=O)c1ccc(Cl)cc1", "Outcome measure": "Nutsedge plant response rating", "Reported result": 0}
{"Compound": "CC(C)N(C(=O)n1oc(=O)n(CC[N+](=O)[O-])c1=O)c1ccc(Cl)cc1", "Outcome measure": "Nutsedge plant response rating", "Reported result": 0}
{"Compound": "CC(C)N(C(=O)n1oc(=O)n(CC2=NOCCC2)c1=O)c1ccccc1", "Outcome measure": "Nutsedge plant response rating", "Reported result": 2}
